Molecular target: T1, FcRn-p3 fusion protein (human, UniProt P55899 24-297; P61769 21-119)
T1 construct: baculovirus expressed; coated on ELISA wells; not shown: amino terminal part of bacteriophage p3 protein and CVDE protein
T1 sequence (P55899 24-297, chain 1 of 2): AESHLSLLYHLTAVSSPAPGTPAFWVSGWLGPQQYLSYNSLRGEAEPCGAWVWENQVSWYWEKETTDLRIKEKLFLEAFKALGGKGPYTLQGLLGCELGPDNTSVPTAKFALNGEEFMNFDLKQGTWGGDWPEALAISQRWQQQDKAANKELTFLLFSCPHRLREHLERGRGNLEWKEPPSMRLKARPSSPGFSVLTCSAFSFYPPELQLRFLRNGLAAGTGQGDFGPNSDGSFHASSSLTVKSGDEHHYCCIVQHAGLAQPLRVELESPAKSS
T1 sequence (P61769 21-119, chain 2 of 2): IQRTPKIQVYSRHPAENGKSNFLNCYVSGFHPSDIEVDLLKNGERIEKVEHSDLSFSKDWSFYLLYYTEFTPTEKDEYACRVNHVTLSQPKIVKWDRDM
Experiment: phage ELISA pH6
Each entry below carries its reported Ratio/Fc-H.
Record the result as number plus unit.

| BINDER | RESULT |
| --- | --- |
| T5A_93 (other, EU numbering) CPPCPAPELLGGPSVFLFPPKPKDTLMISRTPEVTCVVVDVSHEDPEVKFNWYVDGVEVHNAKTKPREEQYNSTYRVVSALTVLHQDWLDGKEYKCKVSNKALPVPIEKTISKAKGQPREPQVYTLPPSRDELTKNQVSLTCLVKGFYPSDIAVEWESNGQPENNYKTTAPVLDSDGSFFLYSKLTVDKSRWQQGNVFSCSVMHEALHYHYTQKSLSLSPGK | 8 fold |
| C4A_32 (other, EU numbering) CPPCPAPELLGGPSVFLFPPKPKDTLMISRTPEVTCVVEDVSHEDPEVKFNWYVDGVEVHNAKTKPREEQYNSTYRVVSVLTVLHQDWLDGKEYKCKVSNKALPAPIEKTISKAKGQPREPQVYTLPPSRDELTKNQVSLTCLVKGFYPSDIVVEWESNGQPENNYKTTPPVLDSDGSFFLYSKLTVDKSRWQQGNVFSCSVMHEALHNHYTQKSLSLSPGK | 1.7 fold |

Report Ratio/Fc-H for C3A_07 (other, EU numbering) CPPCPAPELLGGPSVFLFPPKPKDTLMISRTPEVTCVVVDVSHEDPEVKFNWYVDGVEVHNAKTKPREEQYNSTYRVVSVLPVLHQDWLNGKEYKCKVSNKALPTPIEKTISKAKGQPREPQVYTLPPSRDELTKNQVSLTCLVKGFYPSDIVVEWESNGQPENNYKTTPPVLDSDGSFFLYSKLTVDKSRWQQGNVFSCSVMHEALHNHYTQKSLSLSPGK
1.3 fold

Source of measurements: patent USRE46585
